system: SREBP-2 transcriptional activity (SREBP2 cleavage) in HepG2_LSSprom cells; assay: Luciferase reporter driven by a SREBP-2 specific promoter in HepG2_LSSprom cells; format: cell-based; conditions: 24 h, 24 h treatment, HepG2_LSSprom cells; read-out: SREBP2 Cleavage (IC50 μM) 24 h
Mark true only when IC50 stays strictly below 2 µM. Values equal to the cut-off are false.

>  <COMPOUND>
CC1(O)CCN(C(=O)c2ccc(-c3cc(-c4ccnc(C(C)(C)C)c4)cs3)c(Cl)c2)CC1 [Compound 100]

>  <CLASS_NAME>
true

$$$$
>  <COMPOUND>
C[C@@H]1CN(C(=O)c2ccc(-c3csc(-c4ccnc(C(C)(C)C)c4)c3)c(Cl)c2)C[C@H](C)O1 [Compound 50]

>  <CLASS_NAME>
true

$$$$
>  <COMPOUND>
CNC1CCCN(C(=O)c2ccc(-c3csc(-c4ccnc(C(C)(C)C)c4)c3)c(Cl)c2)C1 (centres unmarked) [Compound 75]

>  <CLASS_NAME>
false

$$$$
>  <COMPOUND>
CC(C)N1CCc2cc(-c3csc(-c4ccnc(C(C)(C)C)c4)c3)c(Cl)cc2C1=O [Compound 52]

>  <CLASS_NAME>
true

$$$$
>  <COMPOUND>
CC(C)(C)OC(=O)N1CCC(NC(=O)c2ccc(-c3csc(-c4ccnc(C(C)(C)C)c4)c3)c(Cl)c2)CC1 [Compound 78]

>  <CLASS_NAME>
true

$$$$
>  <COMPOUND>
CC(C)(C)OC(=O)N[C@H]1CCCN(C(=O)c2ccc(-c3csc(-c4ccnc(C(C)(C)C)c4)c3)c(Cl)c2)C1 [Compound 19b]

>  <CLASS_NAME>
true

$$$$
>  <COMPOUND>
CN(C(=O)c1ccc(-c2csc(-c3ccnc(C(C)(C)C)c3)c2)c(Cl)c1)c1ncco1 [Compound 60]

>  <CLASS_NAME>
false

$$$$

We now examine a further compound.
## Input I wonder whether CC(C)(C)c1cc(-c2nc(-c3ccc(C(=O)N4CCC(F)(F)CC4)cc3Cl)c[nH]2)ccn1 [Compound 24] has IC50 below 2 µM. Can you tell?
## Output false

----------
Listing of entries alongside the reported Cytotoxicity (5 μM) %.
system: HepG2_LSSprom cells; assay: Cytotoxicity assay (LDH release) in HepG2_LSSprom cells; type: cell-based; conditions: 5 μM, LDH release relative to lysis control
Kindly answer with a numeric value in %, unit omitted.

Study these solved cases before continuing.
>  <MOLECULE>
CC(C)(C)c1cc(-c2nc(-c3ccc(C(=O)N4CCCCC4)cc3Cl)cs2)ccn1 [Compound 5]

>  <Cytotoxicity (5 μM) %, %>
4

$$$$
>  <MOLECULE>
CN(C)C(=O)c1ccc(-c2csc(-c3cccc4[nH]ccc34)n2)c(Cl)c1 [Compound 6]

>  <Cytotoxicity (5 μM) %, %>
0

$$$$
>  <MOLECULE>
CN(C)C(=O)c1ccc(-c2csc(-c3ccnc(N4CCCCC4)c3)n2)c(Cl)c1 [Compound 9]

>  <Cytotoxicity (5 μM) %, %>
1

$$$$

--- query ---
## Input Request - read-out Cytotoxicity (5 μM) % | tested on HepG2_LSSprom cells | molecule O=C(c1ccc(-c2csc(-c3cccc4[nH]ccc34)n2)c(Cl)c1)N1CCCCC1 [Compound 4]
## Output 1

----------
system: SREBP-2 transcriptional activity (SREBP2 cleavage) in HepG2_LSSprom cells; assay: Luciferase reporter driven by a SREBP-2 specific promoter in HepG2_LSSprom cells; format: cell-based; conditions: 24 h, 24 h treatment, HepG2_LSSprom cells; read-out: SREBP2 Cleavage (IC50 μM) 24 h
Counter-ions that a name gives are not always drawn.
IC50 overview
# unit: µM | format: bare number

The cases that follow already have their IC50 on record.
>  <COMPOUND>
CC(C)(C)c1cc(-c2csc(-c3ccc(C(=O)N4CC[C@@H](O)C4)cc3Cl)c2)ccn1 [Compound 68b]

>  <IC50 [µM]>
0.06

$$$$
>  <COMPOUND>
CC(C)(C)c1cc(-c2cc(-c3ccc(C(=O)N4CCN(S(C)(=O)=O)CC4)cc3Cl)cs2)ccn1

>  <IC50 [µM]>
2.5

$$$$
>  <COMPOUND>
CC(C)(C)c1cc(-c2cc(-c3ccc(C(=O)N4CCCC(O)C4)cc3Cl)cs2)ccn1 (stereo not drawn)

>  <IC50 [µM]>
0.26

$$$$
>  <COMPOUND>
CC(C)(C)c1cc(-c2csc(-c3ccc(C(=O)N4CCC[C@](C)(O)C4)cc3Cl)c2)ccn1 [Compound 101a, hydrochloride]

>  <IC50 [µM]>
0.15

$$$$
>  <COMPOUND>
CN(C(=O)c1ccc(-c2csc(-c3ccnc(C(C)(C)C)c3)c2)c(Cl)c1)c1ccccc1

>  <IC50 [µM]>
0.39

$$$$

## Input Record request: IC50 value, item CC(C)(C)c1cc(-c2csc(-c3ccc(C(=O)N4CC[C@H](O)C4)cc3Cl)c2)ccn1 [Compound 68a]
## Output 0.15

## Input What IC50 value was documented for this compound, CC(=O)NC1CCN(C(=O)c2ccc(-c3csc(-c4ccnc(C(C)(C)C)c4)c3)c(Cl)c2)CC1 ?
## Output 2.1

## Input Item CC(C)(C)c1cc(-c2csc(-c3ccc(C(=O)N4CCC[C@H](N)C4)cc3Cl)c2)ccn1 [Compound 74b] has what recorded IC50?
## Output 0.51

## Input Find the recorded IC50 belonging to CC(C)(C)c1cc(-c2nc(-c3ccc(C(=O)N4CCCCC4)cc3Cl)c[nH]2)ccn1 and report it.
## Output 0.62

## Input Name the reported IC50 value associated with the compound CC(C)(C)c1cc(-c2cc(-c3ccc(C(=O)N4CCCC(N5CCCC5=O)C4)cc3Cl)cs2)ccn1 (racemic)
## Output 0.85

## Input Fill in: IC50 of CC(C)(C)OC(=O)N[C@@H]1CCCN(C(=O)c2ccc(-c3csc(-c4ccnc(C(C)(C)C)c4)c3)c(Cl)c2)C1 [Compound 19a] is ___
## Output 0.069

## Input Query (compound): Cc1sc(-c2ccc(C(=O)N3CCC[C@H](NC(=O)OC(C)(C)C)C3)cc2Cl)cc1-c1ccnc(C(C)(C)C)c1 [Compound 79b] ; field requested: IC50
## Output 0.52

----------
test system: SREBP-2 transcriptional activity (SREBP2 cleavage) in HepG2_LSSprom cells; test: Luciferase reporter driven by a SREBP-2 specific promoter in HepG2_LSSprom cells; type: cell-based; conditions: 24 h, 24 h treatment, HepG2_LSSprom cells; read-out: SREBP2 Cleavage (IC50 μM) 24 h
// reported log10 IC50 for each item listed
Friendly reminder: values = log10 of IC50, unit µM.

>  <COMPOUND>
CC(C)(C)c1cc(-c2csc(-c3ccc(C(=O)N4CCC[C@H](O)C4)cc3Cl)c2)ccn1 [Compound 89b]

>  <SYSTEM_UNDER_TEST>
SREBP-2 transcriptional activity (SREBP2 cleavage) in HepG2_LSSprom cells

>  <MEASURE_NAME>
log10 IC50

>  <REPORTED_RESULT>
-1.70

$$$$
>  <COMPOUND>
CC(C)(C)c1cc(-c2cc(-c3ccc(C(=O)N4CCCC(NCc5ccc(Cl)cc5)C4)cc3Cl)cs2)ccn1 (centres unmarked)

>  <SYSTEM_UNDER_TEST>
SREBP-2 transcriptional activity (SREBP2 cleavage) in HepG2_LSSprom cells

>  <MEASURE_NAME>
log10 IC50

>  <REPORTED_RESULT>
-1.22

$$$$
>  <COMPOUND>
CC(C)(C)c1cc(-c2cc(-c3ccc(C(=O)N4CC5(COC5)C4)cc3Cl)cs2)ccn1

>  <SYSTEM_UNDER_TEST>
SREBP-2 transcriptional activity (SREBP2 cleavage) in HepG2_LSSprom cells

>  <MEASURE_NAME>
log10 IC50

>  <REPORTED_RESULT>
0.58

$$$$
>  <COMPOUND>
Cc1sc(-c2ccc(C(=O)N3CCC[C@@H](NC(=O)OC(C)(C)C)C3)cc2Cl)cc1-c1ccnc(C(C)(C)C)c1 [Compound 79a]

>  <SYSTEM_UNDER_TEST>
SREBP-2 transcriptional activity (SREBP2 cleavage) in HepG2_LSSprom cells

>  <MEASURE_NAME>
log10 IC50

>  <REPORTED_RESULT>
-0.54

$$$$
>  <COMPOUND>
CC(C)(C)c1cc(-c2csc(-c3ccc(C(=O)N4CCNC(=O)C4)cc3Cl)c2)ccn1

>  <SYSTEM_UNDER_TEST>
SREBP-2 transcriptional activity (SREBP2 cleavage) in HepG2_LSSprom cells

>  <MEASURE_NAME>
log10 IC50

>  <REPORTED_RESULT>
-0.39

$$$$

Then this compound:
## Input Please give the measured log10 IC50 for this compound: CC(C)(C)c1cc(-c2cc(-c3ccc(C(=O)N4CCC(F)(F)CC4)cc3Cl)cs2)ccn1
## Output -0.27
